B1: CAMK2B (parent)
chain: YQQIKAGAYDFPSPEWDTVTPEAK

# Variants of: B1
# assay_notes: protein stability index of a GFP-peptide fusion (GPS, HEK-293T) (PSI 1-6); higher = more stable;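 also: lentivirally expressed fusions sorted by FACS into six bins by GFP to DsRed ratio, PSI derived from sequencing read proportions per bin multiplied by bin number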
# measurement_setup: c terminus: a fixed tail appended
readout_name: protein stability index
Please reply with the value in numeric form only.

K5T    4
T18G    3.56
P14C    3.45

Which protein stability index reading was recorded for the variant Y9H ?
4.14

Same question, F11I this time
3.8

Same question, P21N this time
3.78
